Record form. Attribute: TGI. Fill in for each entry.
tested on: T-47D breast; assay: NCI tumour cell line growth inhibition, 48 h
Answer format: numeric, µM implied, no suffix.

Recorded TGI for O=c1cccc(C#CC#CC2=CCCCC2)o1 , please? 14.8

Recorded TGI for C=C1C(=O)C=C[C@]2(C)CC[C@H]3C(=C)C(=O)O[C@@H]3[C@@H]12 , please? 20.7

Recorded TGI for CC1=C[C@H]2c3c(c(O)c(O)c4oc(-c5ccccc5)cc(=O)c34)[C@H](c3cc(O)c(O)c4oc(-c5ccccc5)cc(=O)c34)[C@H]2C(C)(C)C1 , please? 17.1

Recorded TGI for CC(C)(C[C@H]1CN(S(=O)(=O)c2cccc(C(F)(F)F)c2)c2cc(-c3cc(F)cc(OC(F)F)c3)ccc2O1)C(=O)O , please? 29.2

Recorded TGI for C#C[C@]1(O)CC[C@H]2[C@@H]3CCC4=C/C(=N/OC(=O)c5cccc6c(=O)c7ccccc7[nH]c56)CC[C@@H]4[C@H]3CC[C@@]21C , please? 91.1

Recorded TGI for COc1ccc(/C=C/C(=O)C(CC2CCC2)C(=O)/C=C/c2ccc(OC)c(OC)c2)cc1OC , please? 4.44

Recorded TGI for CC(CO)(CO)NCCCCn1ccc2c1C(=O)c1c(c(O)c3ccccc3c1O)C2=O , please? 65.8

Recorded TGI for O=S(=O)(Nc1cc(Sc2cccc3cccnc23)c(O)c2ccccc12)c1ccccc1 , please? 4.79

###

Record form. Attribute: TGI. Fill in for each entry.
test system: MDA-MB-435; assay: NCI tumour cell line growth inhibition, 48 h

Recorded TGI for Br[C](Br)(Br)[Hg][c]1ccccc1 , please? 30 µM

Recorded TGI for COc1ccc(/C=C/c2cc(OC)cc(=O)o2)cc1 , please? > 100 µM

Recorded TGI for O=C1Nc2ccc(F)cc2/C1=C/c1ccc[nH]1 , please? > 25 µM

Recorded TGI for CC(=O)O[C@H]1CC[C@@]2(C)C(=CC[C@H]3[C@@H]4C[C@H](N5CCOCC5)[C@H](OC(C)=O)[C@@]4(C)CC[C@@H]32)C1 , please? > 100 µM

Recorded TGI for COc1ccc(-c2nn(-c3ccc(NC(=O)Nc4cc(C(F)(F)F)cc(C(F)(F)F)c4)cc3)cc2-c2ccncc2)cc1Cl , please? > 100 µM

###

Record form. Attribute: TGI. Fill in for each entry.
test system: NCI/ADR-RES ovarian; test: NCI tumour cell line growth inhibition, 48 h

Recorded TGI for O=c1c2ccccc2c(=O)c2c1[nH]c1c(-c3ccccc3)c(-c3ccccc3)c(=O)c12 , please? 21.7 µM

Recorded TGI for COc1cccc(/C=N/n2c(C)n[nH]c2=O)c1 , please? > 100 µM

Recorded TGI for CC/C=C\C[C@H]1C/C=C2/C(=O)C=C[C@@H]2C/C=C\CCCC(=O)O1 , please? 7.32 µM

Recorded TGI for COc1ccc(/C=C/c2cc(OC)cc(=O)o2)cc1 , please? > 100 µM

Recorded TGI for Nc1ccc(S2(c3ccc(N)cc3)C=C(c3ccccc3)C(c3ccccc3)=C2)cc1 , please? > 100 µM

Recorded TGI for CC1=C(C(=O)Nc2ccc(F)c(Cl)c2)C(c2cccc(O)c2)NC(=O)N1 (centres undefined) , please? > 100 µM

Recorded TGI for CC(C)(C[C@H]1CN(S(=O)(=O)c2cccc(C(F)(F)F)c2)c2cc(-c3cc(F)cc(OC(F)F)c3)ccc2O1)C(=O)O , please? 30.9 µM

Recorded TGI for O=C1c2ccccc2C2(c3ccc(Cl)cc3)N[C@H]3CCCC[C@@H]3N12 (some centres undefined) , please? > 100 µM

Recorded TGI for CCCSc1nc(COC(=O)NC)c(COC(=O)NC)n1C , please? > 100 µM

Recorded TGI for CC(=O)O[C@H]1CC[C@@]2(C)C(=CC[C@H]3[C@@H]4C[C@H](N5CCOCC5)[C@H](OC(C)=O)[C@@]4(C)CC[C@@H]32)C1 , please? > 100 µM

Recorded TGI for Cc1ccc2c(c1)C(=O)C1(C2)Cc2cccc(C)c2C1=O (centres undefined) , please? > 100 µM

Recorded TGI for CN1C2CCC1CC(C)(O)C2 (centres undefined) , please? > 100 µM

Recorded TGI for NC(CCC(=O)NC(CSCC1C(=O)Nc2ccccc21)C(=O)NCC(=O)O)C(=O)O (centres undefined) , please? 19.7 µM

Recorded TGI for COc1cc(/C=C/c2ccc(OC)c(OC)c2)cc(OC)c1 , please? 60 µM

Recorded TGI for O=c1cccc(C#CC#CC2=CCCCC2)o1 , please? 20.4 µM

Recorded TGI for COc1ccc2c(c1)CCN1CCc3ccccc3CC21 (centres undefined) , please? > 100 µM

Recorded TGI for CC1=C(O)C(=O)C=C2C1=CC=C1[C@@]2(C)CC[C@@]2(C)[C@@H]3C[C@](C)(C(=O)O)CC[C@]3(C)CC[C@]12C , please? 0.107 µM

Recorded TGI for O=C(CCC1OCCO1)Nc1cc(NCc2ccccc2)ccc1OCc1ccccc1 , please? > 100 µM

Recorded TGI for COc1ccc(/C=C/C(=O)C(CC2CCC2)C(=O)/C=C/c2ccc(OC)c(OC)c2)cc1OC , please? > 100 µM

###

tested on: NCI-H460 lung; experiment: NCI tumour cell line growth inhibition, 48 h
reported metric: TGI

Recorded TGI for O=c1c2cc(Br)cc(Br)c2nc(CCCl)n1CCO , please? > 100 µM

Recorded TGI for CC(C)NC(=O)OCCN=c1c2ccccc2ccc2ccccc12 , please? > 100 µM

Recorded TGI for O=C1/C(=C/c2cccc([N+](=O)[O-])c2)COc2ccc(Br)cc21 , please? > 100 µM

Recorded TGI for Nc1ccc(S(=O)(=O)Nc2nccs2)cc1 , please? > 100 µM

Recorded TGI for O=C1/C(=C/c2ccc(Cl)cc2)CSc2ccccc21 , please? > 100 µM

Recorded TGI for CC1(C)[C@@H](OC(N)=O)[C@H]2O[C@H]2[C@]2(C=O)[C@H]3CC[C@]4(C)[C@@H](c5ccc(=O)oc5)[C@@H](Cl)C[C@]4(O)C3=CC[C@@H]12 , please? 0.0077 µM

Recorded TGI for CC(=O)C(=CN1CCN(C(=O)c2ccco2)C1=S)C(C)=O , please? 3.42 µM

Recorded TGI for O=C(O)C1C(Br)(c2ccccc2)C1(Br)c1ccccc1 (stereo unspecified) , please? > 100 µM

Recorded TGI for CCCCCCCCCCCC(=O)OCC1OC(OC)C(NC(=O)N(CCCl)N=O)C(O)C1O (stereo unspecified) , please? 20.5 µM

Recorded TGI for O=C1CCC(O)=C1N=Nc1ccccc1 , please? > 100 µM

Recorded TGI for Cc1ccc2c(c1)C(=O)C1(C2)Cc2cccc(C)c2C1=O (stereo unspecified) , please? > 100 µM

###

tested on: NCI/ADR-RES ovarian; test: NCI tumour cell line growth inhibition, 48 h
Record form. Attribute: GI50. Fill in for each entry.

Recorded GI50 for CCCCCCCCCCCCCCCCCCOc1ccccc1CC(=O)OCC[N+]1(C)CCCC1 , please? 15.1 µM

Recorded GI50 for C#Cc1c(I)n(C2OC(CO[Si](C)(C)C(C)(C)C)C3OC(C)(C)OC32)c(=O)[nH]c1=O (stereo not given) , please? 23.5 µM

Recorded GI50 for CC/C=C\C[C@H]1C/C=C2/C(=O)C=C[C@@H]2C/C=C\CCCC(=O)O1 , please? 0.405 µM

Recorded GI50 for O=C(/C=C\c1ccc(NCc2ccc(C(=O)O)cc2)cc1)CCl , please? 17.8 µM

Recorded GI50 for Cc1ncc(CCCN(C)C)cc1Nc1ncc2c(n1)-c1ccc(C(F)(F)F)cc1NC(=S)C2 , please? 0.172 µM

###

system: TK-10 renal; test: NCI tumour cell line growth inhibition, 48 h
Record form. Attribute: TGI. Fill in for each entry.

Recorded TGI for Cc1ccc(S(=O)(=O)NC(=O)N[C@@H](Cc2cnc[nH]2)C(=O)O)cc1 , please? > 100 µM

Recorded TGI for C=CC/C=C/C/C=C/CCCCCCCc1cccc(O)c1C(=O)O , please? > 100 µM

Recorded TGI for Br[C](Br)(Br)[Hg][c]1ccccc1 , please? 31.4 µM

Recorded TGI for CSc1ncnc2c1ncn2CCC#N , please? > 100 µM

Recorded TGI for O=C1CSC(/C(=N/Nc2ccccc2)c2nc3ccccc3[nH]2)=N1 , please? > 100 µM

Recorded TGI for O=C1CC2CCCC23CC2(CCN13)OCCO2 (configuration not stated) , please? > 100 µM

Recorded TGI for ClCC[N+]12CC[N+](CCCl)(CC1)C2 , please? > 100 µM

Recorded TGI for O=c1oc2ccc([N+](=O)[O-])cc2c(Nc2ccc3c(c2)Oc2ccccc2O3)c1[N+](=O)[O-] , please? > 100 µM

Recorded TGI for O=C(NCO)NCOCn1c(=O)n(CO)c(=O)n(CO)c1=O , please? > 100 µM

Recorded TGI for COc1c(C(C)C)cc2c3c1OC(=O)[C@@]31CCCC(C)(C)C1CC2 (some centres not stated) , please? 99.8 µM

Recorded TGI for O=C(Nc1c(Cl)cc([N+](=O)[O-])cc1Cl)C(=O)C(C1OC(=O)c2ccccc21)[N+](=O)[O-] (configuration not stated) , please? > 100 µM

Recorded TGI for O=c1cc(NC2CCN(CCCc3ccccc3)CC2)c2cc(Cl)ccc2o1 , please? 26.6 µM

Recorded TGI for O=C1NC(=O)C(CC2CCCCCCCCCCC2=O)C(=O)N1 (configuration not stated) , please? > 100 µM

Recorded TGI for CC1=C(CO)C(=O)O[C@@H]([C@@H](CO)[C@H]2CCC3C4C[C@@H](O)[C@@]5(O)CC=CC(=O)[C@]5(C)C4CC[C@@]32C)C1 (some centres not stated) , please? > 100 µM

Recorded TGI for CC(C)(Cl)C(Br)CCC(=CCCl)CBr (mixture of isomers) , please? 5.21 µM

Recorded TGI for CC1=C(C(=O)Nc2ccc(F)c(Cl)c2)C(c2cccc(O)c2)NC(=O)N1 (configuration not stated) , please? > 100 µM

Recorded TGI for CCOc1ccc(/C=C2/C(=O)N=C(NC(C)=O)N2C)cc1 , please? > 100 µM

Recorded TGI for CCOC(=O)c1ccc(C)c(N=NN(C)C)c1 , please? > 100 µM

Recorded TGI for COc1cccc(C#Cc2ccccc2C#CCCCCO)c1 , please? 29.6 µM

Recorded TGI for C[N+]12CCCCC1C(CN1C(=O)Cc3c4ccccc4c(c4ccccc34)CC1=O)CCC2 (configuration not stated) , please? > 100 µM

Recorded TGI for C=C([C@@]1(O)C[C@H]2[C@H](CCC2(OC)OC)[C@@H]2c3ccccc3O[C@@H]21)[Si](C)(C)C , please? > 100 µM

Recorded TGI for NC(=O)NCc1c(C(N)=O)ncn1Cc1ccccc1 , please? > 100 µM
